- System: OVCAR-8 ovarian
- method: NCI tumour cell line growth inhibition, 48 h; in the data active means GI50 below about 0.43 µM; inactive means the rest
Just give me one of these, please: 1.0 (active), 0.0 (inactive)

See these solved cases before continuing.
CN(O)C(=O)SCC(NC(=O)CCC(N)C(=O)O)C(=O)NCC(=O)O (centres undefined): 0.0
CC(=O)NC1C(OC[C@@H](CC(=O)N[C@@H](CC(=O)O)CC(=O)N[C@H](CC(=O)N[C@@H](CCCN)CC(=O)N[C@@H](CCCN)CC(=O)N[C@H](CC(N)=O)C(C)C)C(C)C)NC(=O)C[C@@H](N)C(C)C)OC(CO)C(O)C1O (some centres undefined): 0.0
COc1ccc(-c2nn(-c3cccc(Cl)c3)cc2-c2cc(-c3cccs3)[nH]c(=S)n2)cc1: 0.0
CCN(Cc1cc(Nc2nc(C)cn3c(-c4cn[nH]c4)cnc23)sn1)C(C)(C)CO: 1.0
COc1ncnc2c(-c3ccccc3)cn(COCc3ccccc3)c12: 0.0
COC(=O)c1ccc(-c2nc3cc(Cl)c(Cl)cc3nc2C#N)cc1: 0.0

# input Record lookup: outcome of this test for CCOC(=O)Nc1ccc2c(c1)/C(=N\NC(N)=S)c1ccccc1-2 ?
# output 0.0

# input Tell me the assay call for C/C=C(\C)C(=O)NC1=CC[C@@]2(C)C(=CCC3C2CC[C@@]2(C)C3CC[C@@H]2C(C)N(C)C)C1=O (some centres undefined) please.
# output 0.0

# input # outcome recorded in this test, key = COc1ccc2[nH]cc(-c3ccc(-c4c[nH]c5ccc(OC)cc45)s3)c2c1
# output 0.0
